- Tested on: HCT-15 colon
- assay notes: NCI-60 one-dose screen, 48 h (100 = growth as untreated, 0 = no growth, -100 = all killed)
- reported conditions: 10 µM unless noted
- Description: Growth inhibition of the HCT-15 human tumor cell line is measured as a screen for anti-cancer activity. Cells are grown in 96 well plates and exposed to the test compound for 48 hours. Compounds are tested at a single concentration, which is 10^-5 M for most compounds. The reported endpoint is percent growth (GI% or GIPRCNT), where numbers from 0 - 100% represent growth inhibition, and numbers from -100% - 0 represent cell death. For example, a value of 40 represents 60% growth inhibition. […]
About 83,000 compounds went through this panel and 20% of them were active in at least one assay; those are over-represented in the sample as a whole.
Please note: 1.0 applies when growth is 60% or greater, and 0.0 applies otherwise.

compound	class
CNC(=O)c1cc(N2CCc3cc(NC(=O)Nc4ccc(Cl)c(C(F)(F)F)c4)ccc32)ccn1	0.0
CCCCCc1ccc(S(=O)(=O)Nc2cccc(-c3csc(NC(=O)CNCCN(C)C)n3)c2)cc1	0.0
O=C1[C@H]2Cc3c([nH]c4ccccc34)[C@@H](c3c(Cl)cccc3Cl)N2C(=O)CN1C1CCN(CC2CCCCC2)CC1	0.0
COc1cc(/C=C2\C(=O)Nc3cc(Cl)ccc32)ccc1OCc1ccc(F)cc1	1.0
NC(N)=Nc1ccc(Nc2cccc(Nc3ccc(Cl)c(C(F)(F)F)c3)c2)cn1	1.0
CCOC(=O)C(=O)CC(=O)N1C(=S)NC(=O)C1CC(C)C (stereo not given)	1.0
COc1ccccc1-n1cc(C#N)c(N)c1C(=O)c1ccc(C)cc1	0.0
N=c1c2cc(-c3ccccc3)oc2ncn1/N=C/c1ccc(Cl)cc1	0.0
COc1ccc(NC(=O)Nc2ccc3c(ccn3C(=O)c3cccc(F)c3)c2)cc1	1.0
NS(=O)(=O)c1ccc(-n2cc(CN3CCNCC3)nn2)cc1	1.0

====

- System: 786-0 renal
- assay notes: NCI-60 one-dose screen, 48 h (100 = growth as untreated, 0 = no growth, -100 = all killed)
- reported conditions: 10 µM unless noted
- Experimental: Cells are grown in 96 well plates and exposed to the test compound for 48 hours. Compounds are tested at a single concentration, which is 10^-5 M for most compounds. The reported endpoint is percent growth (GI% or GIPRCNT), where numbers from 0 - 100% represent growth inhibition, and numbers from -100% - 0 represent cell death. For example, a value of 40 represents 60% growth inhibition. A value of 0 means no net growth occurred over the course of the experiment. […]
The panel holds about 83,000 compounds, 20% with a hit somewhere; the sample as a whole holds those more often.

compound	growth / %
Cn1ccnc1C(=O)/C=C/c1ccc(CNC(=O)c2c(F)c(F)c(F)c(F)c2F)cc1	28
NC(N)=Nc1ccc(Nc2cccc(Nc3ccc(Cl)c(C(F)(F)F)c3)c2)cn1	72.6
CCCn1cnc2c(c1=N)C(c1ccc(Cl)cc1)c1sc3c(C)cccc3c1O2 (stereo not given)	33.8
Cc1nn(-c2ccccc2)c2ncnc(N/N=C/c3cccc(O)c3)c12	66.7
Brc1ccccc1/C=N/Nc1nc(N/N=C/c2ccccc2Br)nc(N2CCOCC2)n1	61.3

====

- Test system: HT29 colon
- assay notes: NCI-60 one-dose screen, 48 h (100 = growth as untreated, 0 = no growth, -100 = all killed)
- reported conditions: 10 µM unless noted
This is part of a sample that, as a whole, favours compounds with a hit. Of some 83,000 tested, about 20% had one in any assay.
measurement type: growth (%)

compound	tested target	obs value
CCN1CCN(C(=O)[C@]23CCC(C)(C)C[C@H]2C2=CC[C@@H]4[C@@]5(C)Cc6c([nH]c7ccccc67)C(C)(C)[C@@H]5CC[C@@]4(C)[C@]2(C)CC3)CC1	HT29 colon	88.3
CCOC(=O)c1c(N)c(C#N)cn1-c1cc(OC)c(OC)c(OC)c1	HT29 colon	107
Cc1cc(C)n(C(=O)c2sc(=S)n(-c3ccccc3)c2N=Nc2c(N)n[nH]c2N)n1	HT29 colon	103
Cc1cc(C)cc(C(=O)Nc2cccc(C#Cc3cccc4[nH]nc(N)c34)c2)c1	HT29 colon	41.7
COc1cc2nc(Cl)nc(Nc3cccc(C4=Nc5c(N)nc(N)nc5NC(c5ccc(F)cc5)C4)c3)c2cc1OC (stereo not given)	HT29 colon	9.87
Cc1ccc2c(c1)C13C(=C2Br)CCCN1C(=O)c1ccccc13 (stereo not given)	HT29 colon	98.9
C#CCNC1CCC(c2csc(C#C)n2)=C1C (stereo not given)	HT29 colon	50.7
C=C(C)[C@@H]1CC[C@]2(COCCCNCCC#N)CC[C@]3(C)[C@H](CC[C@@H]4[C@@]5(C)CC[C@H](OCCCNCCC#N)C(C)(C)[C@@H]5CC[C@]43C)[C@@H]12	HT29 colon	49.9
C#CCOc1ccc(/C=N\Nc2nc(-c3ccc(C)cc3)cs2)cc1OC	HT29 colon	88.2
COc1cc2c(cc1OC)C(Sc1ccc(F)cc1)c1c(nc(N)c(C#N)c1N)O2 (stereo not given)	HT29 colon	5.15
N#Cc1cnc2ccc(-c3cnc(N)nc3)cc2c1N1CCc2cc(F)c(Cl)cc21	HT29 colon	11.4
COc1cc2oc(-c3cccc(NC(=O)c4cc(N)ccc4Cl)c3)cc(=O)c2c(OC)c1OC	HT29 colon	110
CC(=O)c1nnn(-c2c(C(=O)n3nc(C)cc3C)sc(=S)n2-c2ccccc2)c1C	HT29 colon	114
NS(=O)(=O)c1ccc(Nc2nc(N/N=C/c3ccccn3)nc(Nc3ccccc3)n2)cc1	HT29 colon	6.29
CCCCCc1ccc(S(=O)(=O)Nc2cc(-c3csc(NC(=O)CN4CCN(C)CC4)n3)ccc2N2CCN(C)CC2)cc1	HT29 colon	-25.3
CC(C)C[C@@H]1N[C@@]2(C(=O)Nc3ccccc32)[C@@H](c2ccc(F)cc2)[C@@H]1C(=O)c1ccc(O)cc1	HT29 colon	105
CCO/C=N/C1=C(C#N)C(c2ccc(Cl)cc2)c2sc3c(C)cccc3c2O1 (stereo not given)	HT29 colon	4.77
NC(N)=Nc1ccc(Nc2cccc(Nc3ccc(Cl)c(C(F)(F)F)c3)c2)cn1	HT29 colon	29.8
CCn1c(SCC(=O)Nc2cccc(C(=O)/C=C/c3ccc(Br)cc3)c2)nc2ccccc2c1=O	HT29 colon	85.4
O=C(Nc1ccc2c(ccn2Cc2ccccn2)c1)c1cnccn1	HT29 colon	109
Cc1c(Cl)cccc1S(=O)(=O)Nc1ccc2c(c1)C(=O)N(C1CCC(=O)NC1=O)C2=O (stereo not given)	HT29 colon	105
O=C(NNc1nc2cc(F)ccc2n2c(CN3CC4CNCC4C3)ccc12)c1cnccn1 (stereo not given)	HT29 colon	29.2
CC(C)(C)n1nnnc1C(Nc1cccc2c1OCO2)c1cc2cccc3ccc4cccc1c4c32 (stereo not given)	HT29 colon	81.2
C[C@@H]1C[C@H]2C(=O)O[C@@H](C)C(NC(=O)[C@H](Cc3cc(F)cc(F)c3)NC(=O)Nc3ccc(Cl)cc3F)C(=O)N3CCC[C@H]3C(=O)N3CCCC[C@H]3C(=O)N[C@@H](CO)C(=O)N2C1 (stereo not given in full)	HT29 colon	35.3
O=C1CCCc2nc(Nc3ccc(S(=O)(=O)Nc4ccc([N+](=O)[O-])cc4)cc3)ncc21	HT29 colon	118
CC(Nc1c(C#N)cnc2ccc(-c3cnc(N)nc3)cc12)c1ccccc1 (stereo not given)	HT29 colon	17.4
CCn1c(SCC(=O)Nc2cccc(C(=O)/C=C/c3ccccc3Cl)c2)nc2ccccc2c1=O	HT29 colon	67.1
CC(=O)c1ccc(Nc2nc(SCC(C)C)nc(-c3ccccc3)c2C#N)cc1	HT29 colon	106
O=c1[nH]c2ccccc2cc1CSc1ccccc1Nc1nccc(-c2ccc(Cl)cc2)n1	HT29 colon	109
C#CC(=O)N(c1ccc(OC)cc1OC)C(C(=O)NCC(=O)OCC)c1cccs1 (stereo not given)	HT29 colon	-7.89
CCCCCc1ccc(S(=O)(=O)Nc2cccc(-c3csc(NC(=O)CN4CCN(C)CC4)n3)c2)cc1	HT29 colon	25.5
Cc1ccc(-n2cc(/C=N/NC(=O)c3nc(N)n[nH]3)c(-c3ccc(S(C)(=O)=O)cc3)n2)cc1	HT29 colon	105
CNC(=O)c1c(NC(=O)c2cccc(C(F)(F)F)c2F)sc2c1CCC(=O)C2	HT29 colon	9.35
O=C(Cn1cc[n+](CC(=O)c2ccc(-c3ccccc3)cc2)c1)Nc1cccc2cccnc12	HT29 colon	59.8
C#C[C@]1(O)CC[C@H]2[C@@H]3CC=C4c5sc(-c6ccc(C)cc6)nc5CC[C@]4(C)[C@H]3CC[C@@]21C	HT29 colon	98

Data origin, for the record: PubChem BioAssay (NCI)
